Examples of molecules with documented relative IC50 follow.
System: ZR-75-1
Assay: relative IC50 (midpoint of fitted logistic curve, plateau may be below 50% inhibition; CellTiter-Glo viability); higher = less potent
Conditions: 4-OH-tamoxifen in medium 1 µM; 72 h

Below are worked cases with known answers.
O=C(O)CCCc1ccc(N(CCCl)CCCl)cc1 [Chlorambucil]; > 10000 nM
NC(=O)Nc1cc(-c2cccc(F)c2)sc1C(=O)N[C@H]1CCCNC1 [AZD7762]; > 1000 nM
Cc1cc(Nc2nc(N[C@@H](C)c3ncc(F)cn3)ncc2Cl)[nH]n1 [AZD1480]; > 1000 nM
CCNC(=O)c1noc(-c2cc(C(C)C)c(O)cc2O)c1-c1ccc(CN2CCOCC2)cc1 [NVP-AUY922]; 40.4 nM
Nc1nc2[nH]cc(CCc3ccc(C(=O)N[C@@H](CCC(=O)O)C(=O)O)cc3)c2c(=O)[nH]1 [Pemetrexed]; > 10000 nM

The molecule Cc1c(N)nc([C@H](CC(N)=O)NC[C@H](N)C(N)=O)nc1C(=O)N[C@H](C(=O)N[C@H](C)[C@@H](O)[C@H](C)C(=O)N[C@H](C(=O)NCCc1nc(-c2nc(C(=O)NCCC[S+](C)C)cs2)cs1)[C@@H](C)O)[C@@H](OC1OC(CO)C(O)C(O)C1OC1OC(CO)C(O)C(OC(N)=O)C1O)c1cnc[nH]1 (stereo not given in full) [Bleomycin] showed relative IC50 equal to > 10000 nM

The molecule Cn1cc(CNCC2CCN(c3ncc(C(=O)NO)cn3)CC2)c2ccccc21 showed relative IC50 equal to 30 nM

The molecule COc1cc2c(cc1O)CC[C@@H]1[C@@H]2CC[C@]2(C)[C@@H](O)CC[C@@H]12 [2-methoxyestradiol (Panzem)] showed relative IC50 equal to > 10000 nM

Data provenance: the supplement of paper PMC4932681
